Assay: Cytotoxicity against African green monkey Vero cells assessed as cell viability up to 100 uM measured after 48 hrs by MTT assay relative to control
Assay type: cell-based
Conditions: chlorocebus sabaeus, read-out: Activity
In this section we review reported viability at 48 h values for a set of molecules.

INSERT INTO assay_data (smiles_string, assay_metric, data_value) VALUES
  ('Cc1cc(-c2ccc(OCCn3c([N+](=O)[O-])cnc3C)cc2)nc2ccccc12', 'viability at 48 h', '> 86%');

# evaluate next
Looking up Cc1cc(-c2cccc(OCCn3c([N+](=O)[O-])cnc3C)c2)nc2ccccc12 , I found its viability at 48 h recorded as > 86%

Ref: ChEMBL document CHEMBL4396890
